- Tested on: Hepatocyte
- Method: Induction of CYP3A4 mRNA expression in human primary hepatocytes at 10 uM after 48 hrs relative to rifampin
- Assay type: ADME, cell-based
Binary label based on Activity with cut-off 10%: below gives label 1, not below gives label 0.

* O=C(O)c1cccc([C@H]2C[C@@H](NC(=O)C3(c4ccc5c(c4)OC(F)(F)O5)CC3)c3ccc(C(F)(F)F)cc3O2)c1 | label 0
* COc1ccc2c(c1)[C@H](NC(=O)C1(c3ccc4c(c3)OC(F)(F)O4)CC1)C[C@H](c1cccc(C(=O)O)c1)O2 | label 1
* O=C(O)c1cccc([C@H]2C[C@@H](NC(=O)C3(c4ccc5c(c4)OC(F)(F)O5)CC3)c3ccc(F)cc3O2)c1 | label 0
* COc1ccc2c(c1)O[C@@H](c1ccc(C(=O)O)cc1)C[C@H]2NC(=O)C1(c2ccc3c(c2)OC(F)(F)O3)CC1 | label 1
* COc1ccc2c(c1)O[C@@H](c1cccc(C(=O)O)c1)C[C@H]2NC(=O)C1(c2ccc3c(c2)OC(F)(F)O3)CC1 | label 0

Attention now shifts to the item below.
Task item: Strictly below 10% in Activity? `O=C(O)c1ccc([C@H]2C[C@@H](NC(=O)C3(c4ccc5c(c4)OC(F)(F)O5)CC3)c3ccc(OC(F)F)cc3O2)cc1`
Reply: label 1

Ref: ChEMBL document CHEMBL4020819
